Target: Taste receptor type 2 member 38 (Homo sapiens)
Sequence (P59533 whole entry): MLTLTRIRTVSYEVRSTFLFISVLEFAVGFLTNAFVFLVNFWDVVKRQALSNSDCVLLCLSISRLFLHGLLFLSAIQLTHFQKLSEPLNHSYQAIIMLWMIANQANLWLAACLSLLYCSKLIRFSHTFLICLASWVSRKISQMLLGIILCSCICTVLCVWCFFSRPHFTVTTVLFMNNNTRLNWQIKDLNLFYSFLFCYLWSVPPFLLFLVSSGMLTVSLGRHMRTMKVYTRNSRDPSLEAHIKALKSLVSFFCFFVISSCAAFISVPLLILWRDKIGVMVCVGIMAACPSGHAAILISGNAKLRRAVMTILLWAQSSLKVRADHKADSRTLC
Assay: Activity at human TAS2R38 expressed in HEK-293T-Galpha16-gustducin44 cells assessed as effect on calcium response by FLIPR assay
readout: pEC50
Just the number, please; pEC50 means minus log10 of the concentration in mol/L.

Previously resolved entries follow.
CC(=S)Nc1ccccc1 : 4.74
CN(C)C(=S)N(C)C : 4.00
CN(C)C=S : 4.26

Ask: // lookup pEC50 for `O=c1cc(-c2ccccc2)[nH]c(=S)[nH]1`
Result: 6.30

Ask: Would you mind doing `CCNC(N)=S` as well?
Result: 3.59

Ask: Similarly, `CC(=O)NC(N)=S` ?
Result: 4.82

Ask: Another compound to check: O=c1cc[nH]c(=S)[nH]1 [THIOURACIL]
Result: 2.70
